The reported numbers originate from patent US11945798B2.

target: EGFR wildtype (WT) (Homo sapiens, UniProt P00533); experiment: Biochemical EGFR kinase assay (Lance Ultra TR-FRET), wildtype; conditions: Km ATP; read-out: IC50 WT (nM) Km ATP
Sequence (P00533 25-1210): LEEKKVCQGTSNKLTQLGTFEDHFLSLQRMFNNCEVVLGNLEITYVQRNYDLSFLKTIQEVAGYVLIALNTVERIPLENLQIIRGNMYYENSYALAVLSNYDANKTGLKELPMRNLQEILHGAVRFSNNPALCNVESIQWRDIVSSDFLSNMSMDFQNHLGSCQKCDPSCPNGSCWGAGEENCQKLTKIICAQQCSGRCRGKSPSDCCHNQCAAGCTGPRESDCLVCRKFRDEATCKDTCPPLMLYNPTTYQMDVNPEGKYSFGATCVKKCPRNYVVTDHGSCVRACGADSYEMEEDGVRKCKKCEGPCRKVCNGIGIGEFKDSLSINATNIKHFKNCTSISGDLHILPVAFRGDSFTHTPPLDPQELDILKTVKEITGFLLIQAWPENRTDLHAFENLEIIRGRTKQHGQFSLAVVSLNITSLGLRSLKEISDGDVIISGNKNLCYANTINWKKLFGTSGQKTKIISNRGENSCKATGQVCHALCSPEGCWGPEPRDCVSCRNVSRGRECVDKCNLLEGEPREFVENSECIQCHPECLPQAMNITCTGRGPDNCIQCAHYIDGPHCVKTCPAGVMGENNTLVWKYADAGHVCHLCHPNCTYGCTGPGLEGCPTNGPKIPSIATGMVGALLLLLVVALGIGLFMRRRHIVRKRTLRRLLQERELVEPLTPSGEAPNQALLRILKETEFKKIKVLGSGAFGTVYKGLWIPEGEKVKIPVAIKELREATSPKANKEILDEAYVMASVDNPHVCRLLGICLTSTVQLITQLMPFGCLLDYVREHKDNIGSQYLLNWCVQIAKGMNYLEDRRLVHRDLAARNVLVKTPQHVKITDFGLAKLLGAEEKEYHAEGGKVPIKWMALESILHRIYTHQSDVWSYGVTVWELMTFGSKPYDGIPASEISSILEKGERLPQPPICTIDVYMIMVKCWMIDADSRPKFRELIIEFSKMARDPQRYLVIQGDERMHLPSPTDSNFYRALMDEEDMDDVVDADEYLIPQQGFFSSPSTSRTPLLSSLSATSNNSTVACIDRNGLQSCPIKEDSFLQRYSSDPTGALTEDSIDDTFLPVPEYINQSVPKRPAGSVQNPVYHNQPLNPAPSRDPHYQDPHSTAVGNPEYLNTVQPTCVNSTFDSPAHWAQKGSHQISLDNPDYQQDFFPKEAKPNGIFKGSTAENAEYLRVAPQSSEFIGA
attributeMeasured: IC50 (nM)

Here's what some known entries look like.
CC(C)Nc1cc(Nc2ccnc(-c3cnn(S(=O)(=O)C4CC4)c3)n2)ncc1C(=O)NCC(F)F = 1140
O=C(c1cnc(Nc2ccnc(-c3cnn(S(=O)(=O)C4CC4)c3)n2)cc1NC1CCC(CO)C1)C1CC1 (stereo not shown) = 28.2
CN(C)C[C@H]1CC[C@H](COc2cc(Nc3ccnc(-c4cnn(S(=O)(=O)C5CC5)c4)n3)ncc2C(=O)C2CC2)CC1 = 148
O=C(c1cnc(Nc2ccnc(-c3cnn(S(=O)(=O)C4CC4)c3)n2)cc1NCCCC(F)F)C1CC1 = 2970
NC[C@H]1CC[C@H](CNc2cc(Nc3ccnc(-c4cnn(S(=O)(=O)C5CC5)c4)n3)ncc2C(=O)C2CC2)CC1 = 9.3

a = O=C(c1cnc(Nc2ccnc(-c3cnn(S(=O)(=O)C4CC4)c3)n2)cc1NCCC1CCOC1)C1CC1 (stereo not shown)
b = CC(=O)c1cnc(Nc2ccnc(-c3cnn(S(=O)(=O)C4CC4)c3)n2)cc1NC1CCC(CO)C1 (stereo not shown)
Which of the two gives a bigger number for IC50: a or b ? Respond with the label that goes with your answer.
a

====

target: EGFR del19/C797S (Homo sapiens, UniProt P00533, C797S/DEL746-750); experiment: Biochemical EGFR kinase assay (Lance Ultra TR-FRET), del19/C797S; details: Km ATP; read-out: IC50 del19/C797S (nM) Km ATP
Sequence (P00533 with tags, fused parts or gaps DEL746-750/C797S): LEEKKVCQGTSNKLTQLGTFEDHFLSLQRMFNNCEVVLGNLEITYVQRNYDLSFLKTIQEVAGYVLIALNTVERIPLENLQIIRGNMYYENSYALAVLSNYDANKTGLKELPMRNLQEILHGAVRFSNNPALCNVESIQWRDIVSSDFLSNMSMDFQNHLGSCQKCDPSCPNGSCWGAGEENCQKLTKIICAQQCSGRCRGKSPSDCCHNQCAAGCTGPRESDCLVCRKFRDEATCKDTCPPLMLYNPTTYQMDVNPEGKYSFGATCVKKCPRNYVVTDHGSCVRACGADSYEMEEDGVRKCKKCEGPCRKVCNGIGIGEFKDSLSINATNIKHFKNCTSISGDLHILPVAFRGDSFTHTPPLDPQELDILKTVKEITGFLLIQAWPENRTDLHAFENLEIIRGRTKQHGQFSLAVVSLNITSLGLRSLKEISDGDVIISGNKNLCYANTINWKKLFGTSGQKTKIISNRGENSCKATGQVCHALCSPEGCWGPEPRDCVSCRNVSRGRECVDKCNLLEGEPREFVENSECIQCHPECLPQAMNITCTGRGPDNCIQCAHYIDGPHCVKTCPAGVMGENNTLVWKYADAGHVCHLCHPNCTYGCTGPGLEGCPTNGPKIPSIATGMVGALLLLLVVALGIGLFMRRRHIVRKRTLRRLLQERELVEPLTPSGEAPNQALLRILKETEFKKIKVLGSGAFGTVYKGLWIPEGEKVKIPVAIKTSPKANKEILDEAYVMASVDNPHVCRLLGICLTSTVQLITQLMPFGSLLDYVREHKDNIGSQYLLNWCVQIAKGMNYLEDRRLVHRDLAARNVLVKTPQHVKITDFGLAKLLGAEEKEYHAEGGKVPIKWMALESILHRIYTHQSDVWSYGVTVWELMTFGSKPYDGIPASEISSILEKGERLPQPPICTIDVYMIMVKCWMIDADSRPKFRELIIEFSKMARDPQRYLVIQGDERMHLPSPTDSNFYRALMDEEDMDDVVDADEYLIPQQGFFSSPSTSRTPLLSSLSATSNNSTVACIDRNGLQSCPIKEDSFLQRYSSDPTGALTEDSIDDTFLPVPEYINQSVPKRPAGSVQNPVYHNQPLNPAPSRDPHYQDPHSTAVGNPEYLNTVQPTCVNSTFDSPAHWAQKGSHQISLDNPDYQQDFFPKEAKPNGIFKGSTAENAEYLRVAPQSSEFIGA
attributeMeasured: IC50 (nM)

Here's what some known entries look like.
CNC[C@H]1CC[C@H](CNc2cc(Nc3ccnc(-c4cnn(S(=O)(=O)C5CC5)c4)n3)ncc2C(=O)C2CC2)CC1 = 0.5
C[C@@H](CCO)Nc1cc(Nc2ccnc(-c3cnn(S(=O)(=O)C4CC4)c3)n2)ncc1C(=O)C1CC1 = 61.6
CC(C)Nc1cc(Nc2ccnc(-c3cnn(S(=O)(=O)C4CC4)c3)n2)ncc1F = 47.7

a = CC(C)Nc1cc(Nc2ccnc(-c3cnn(S(=O)(=O)C4CC4)c3)n2)ncc1C(=O)NCC(F)F
b = O=C(c1cnc(Nc2ccnc(-c3cnn(S(=O)(=O)C4CC4)c3)n2)cc1NCCC1CCOC1)C1CC1 (stereo not shown)
c = O=C(c1cnc(Nc2ccnc(-c3cnn(S(=O)(=O)C4CC4)c3)n2)cc1NC1CCCN(CCF)C1)C1CC1 (stereo not shown)
d = CC(C)C(=O)NC[C@H]1CC[C@H](CNc2cc(Nc3ccnc(-c4cnn(S(=O)(=O)C5CC5)c4)n3)ncc2C(=O)C2CC2)CC1
Rank the items in ascending order with respect to IC50. Submit the labels in the order that the ranking request calls for.
d, c, b, a

====

biological target: EGFR del19/T790M/C797S (Homo sapiens, UniProt P00533, C797S/DEL746-750/T790M); assay: Biochemical EGFR kinase assay (Lance Ultra TR-FRET), del19/T790M/C797S; conditions: IC50 del19/T790M/C797S (nM) 100 μM ATP, 100 μM ATP
Sequence (P00533 with tags, fused parts or gaps DEL746-750/T790M/C797S): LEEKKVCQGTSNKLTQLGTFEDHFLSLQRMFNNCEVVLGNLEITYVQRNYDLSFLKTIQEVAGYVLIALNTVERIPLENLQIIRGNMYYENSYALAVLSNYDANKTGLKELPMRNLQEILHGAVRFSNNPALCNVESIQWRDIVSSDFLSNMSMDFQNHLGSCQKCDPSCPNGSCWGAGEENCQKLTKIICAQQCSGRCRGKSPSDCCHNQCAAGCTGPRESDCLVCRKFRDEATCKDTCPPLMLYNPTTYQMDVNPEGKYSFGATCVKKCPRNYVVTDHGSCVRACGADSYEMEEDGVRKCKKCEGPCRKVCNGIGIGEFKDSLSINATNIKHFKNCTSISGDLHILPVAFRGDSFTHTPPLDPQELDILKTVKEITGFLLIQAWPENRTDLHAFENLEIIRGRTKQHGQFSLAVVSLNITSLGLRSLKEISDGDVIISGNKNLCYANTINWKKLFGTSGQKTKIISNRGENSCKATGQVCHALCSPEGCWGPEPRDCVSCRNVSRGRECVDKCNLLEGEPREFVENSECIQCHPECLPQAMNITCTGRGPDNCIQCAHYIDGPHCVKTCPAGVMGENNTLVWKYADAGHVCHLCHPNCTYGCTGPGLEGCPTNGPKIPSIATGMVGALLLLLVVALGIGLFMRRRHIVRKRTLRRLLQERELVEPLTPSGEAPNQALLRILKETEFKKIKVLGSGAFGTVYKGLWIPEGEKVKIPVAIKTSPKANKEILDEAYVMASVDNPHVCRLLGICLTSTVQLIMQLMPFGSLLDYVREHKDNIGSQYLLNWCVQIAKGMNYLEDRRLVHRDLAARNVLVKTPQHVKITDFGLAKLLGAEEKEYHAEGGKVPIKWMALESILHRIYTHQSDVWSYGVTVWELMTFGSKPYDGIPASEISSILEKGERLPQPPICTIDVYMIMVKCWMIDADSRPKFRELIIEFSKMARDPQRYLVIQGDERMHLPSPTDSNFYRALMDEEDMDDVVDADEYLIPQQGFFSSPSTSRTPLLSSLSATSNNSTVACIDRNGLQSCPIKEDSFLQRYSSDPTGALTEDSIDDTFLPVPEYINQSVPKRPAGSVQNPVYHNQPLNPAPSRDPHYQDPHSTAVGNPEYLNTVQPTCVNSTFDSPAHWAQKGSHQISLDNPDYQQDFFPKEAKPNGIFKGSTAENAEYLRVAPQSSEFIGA
attributeMeasured: IC50 (nM)

O=C(c1cnc(Nc2ccnc(-c3cnn(S(=O)(=O)C4CC4)c3)n2)cc1NC1CCC(F)(CO)CC1)C1CC1 (stereo not shown) [Example 87] = 2.2
O=C(c1cnc(Nc2ccnc(-c3cnn(S(=O)(=O)C4CC4)c3)n2)cc1N[C@@H]1CC[C@@H](O)C1)C1CC1 [Example 26] = 2.9
O=C(c1cnc(Nc2ccnc(-c3cnn(S(=O)(=O)C4CC4)c3)n2)cc1N[C@H]1CC[C@@H](O)C1)C1CC1 [Example 25] = 0.9
CN(C)CCN1CCC(Nc2cc(Nc3ccnc(-c4cnn(S(=O)(=O)C5CC5)c4)n3)ncc2C(=O)C2CC2)CC1 [Example 37] = 1.2

I = O=C(NCCF)c1cnc(Nc2ccnc(-c3cnn(S(=O)(=O)C4CC4)c3)n2)cc1N[C@H]1CC[C@@H](NCCF)CC1 [Example 77]
II = O=C(c1cnc(Nc2ccnc(-c3cnn(S(=O)(=O)C4CC4)c3)n2)cc1NC1CCN(C2COC2)CC1)C1CC1 [Example 38]
III = CC1(CO)CCN(c2cc(Nc3ccnc(-c4cnn(S(=O)(=O)C5CC5)c4)n3)ncc2F)CC1 [Example 85]
Rank the items in ascending order with respect to IC50. Submit the labels in the order that the ranking request calls for.
I, II, III

====

target: EGFR L858R/C797S (Homo sapiens, UniProt P00533, C797S/L858R); test: Biochemical EGFR kinase assay (Lance Ultra TR-FRET), L858R/C797S; conditions: Km ATP; read-out: IC50 L858R/C797S (nM) Km ATP
Sequence (P00533 25-1210 C797S/L858R): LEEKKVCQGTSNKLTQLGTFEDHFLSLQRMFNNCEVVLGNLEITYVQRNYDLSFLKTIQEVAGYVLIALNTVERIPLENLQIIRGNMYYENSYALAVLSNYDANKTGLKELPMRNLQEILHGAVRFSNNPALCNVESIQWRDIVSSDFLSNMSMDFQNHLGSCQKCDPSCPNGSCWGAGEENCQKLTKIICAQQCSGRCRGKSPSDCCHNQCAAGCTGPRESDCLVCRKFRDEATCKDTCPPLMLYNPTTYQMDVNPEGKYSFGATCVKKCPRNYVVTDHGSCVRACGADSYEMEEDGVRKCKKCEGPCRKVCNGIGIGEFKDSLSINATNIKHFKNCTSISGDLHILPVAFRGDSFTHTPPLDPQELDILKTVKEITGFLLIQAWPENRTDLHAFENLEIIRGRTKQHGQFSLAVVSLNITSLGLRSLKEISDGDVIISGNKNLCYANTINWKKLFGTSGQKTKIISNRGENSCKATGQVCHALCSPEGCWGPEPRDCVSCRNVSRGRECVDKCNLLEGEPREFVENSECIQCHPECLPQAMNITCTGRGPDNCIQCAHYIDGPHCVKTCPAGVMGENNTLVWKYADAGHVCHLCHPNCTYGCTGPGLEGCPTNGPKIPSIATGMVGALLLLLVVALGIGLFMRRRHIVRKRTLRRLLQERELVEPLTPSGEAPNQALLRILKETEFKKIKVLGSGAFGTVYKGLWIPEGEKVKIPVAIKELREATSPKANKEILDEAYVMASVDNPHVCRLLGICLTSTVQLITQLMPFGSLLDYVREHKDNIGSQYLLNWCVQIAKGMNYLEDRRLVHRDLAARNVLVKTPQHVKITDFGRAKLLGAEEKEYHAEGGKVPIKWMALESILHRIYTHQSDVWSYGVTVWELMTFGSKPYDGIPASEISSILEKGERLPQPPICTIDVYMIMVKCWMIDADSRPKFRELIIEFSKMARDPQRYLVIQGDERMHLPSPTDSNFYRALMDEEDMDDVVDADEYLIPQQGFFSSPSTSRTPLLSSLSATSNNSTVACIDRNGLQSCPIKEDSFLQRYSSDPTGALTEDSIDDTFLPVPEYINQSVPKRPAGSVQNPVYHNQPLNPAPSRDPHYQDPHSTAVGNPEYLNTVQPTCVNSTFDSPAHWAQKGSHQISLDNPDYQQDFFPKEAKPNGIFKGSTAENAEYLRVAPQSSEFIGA
attributeMeasured: IC50 (nM)

CN(C)C[C@H]1CC[C@H](CNc2cc(Nc3ccnc(-c4cn[nH]c4)n3)ncc2C(=O)C2CC2)CC1 [Example 59] = 67.9

P = C[C@]1(O)CC[C@@H](Nc2cc(Nc3ccnc(-c4cnn(S(=O)(=O)C5CC5)c4)n3)ncc2C(=O)C(F)F)CC1 [Example 48]
Q = O=C(c1cnc(Nc2ccnc(-c3cnn(S(=O)(=O)C4CC4)c3)n2)cc1N[C@H]1CC[C@@H](CO)CC1)C(F)F [Example 49]
R = O=C(c1cnc(Nc2ccnc(-c3cnn(S(=O)(=O)C4CC4)c3)n2)cc1NC[C@H]1CC[C@H](CNC2CCCC2)CC1)C1CC1 [Example 70]
S = CN(C)C[C@H]1CC[C@H](CNc2cc(Nc3ccnc(-c4cnn(CC5CC5)c4)n3)ncc2C(=O)C2CC2)CC1 [Example 61]
T = CC(C)C(=O)NC[C@H]1CC[C@H](CNc2cc(Nc3ccnc(-c4cnn(S(=O)(=O)C5CC5)c4)n3)ncc2C(=O)C2CC2)CC1 [Example 72]
Rank the items in ascending order with respect to IC50. Submit the labels in the order that the ranking request calls for.
Q, R, P, T, S
(Q: 4 nM, R: 14.4 nM, P: 26.2 nM, T: 45.8 nM, S: 123 nM)

====

Biological target: EGFR L858R/C797S (Homo sapiens, UniProt P00533, C797S/L858R)
Assay: Biochemical EGFR kinase assay (Lance Ultra TR-FRET), L858R/C797S
Settings: IC50 L858R/C797S (nM) 100 μM ATP, 100 μM ATP
Description: Biochemical EGFR kinase assays were conducted using Lance Ultra time-resolved fluorescence resonance energy transfer (TR-FRET) technology from Perkin-Elmer. […] Each kinase reactions were incubated at room temperature for 1 hour and then stopped by the addition of 4 μL of stop solution (10 mM EDTA). […] After 60 minutes incubation at room temperature the LANCE signal was measured on an EnVision Multilabel Reader (Perkin-Elmer). […]
attributeMeasured: IC50 (nM)

O=C(c1cnc(Nc2ccnc(-c3cnn(S(=O)(=O)C4CC4)c3)n2)cc1NC1CCC(F)(CO)CC1)C1CC1 (stereo not drawn) = 442

A = C[C@]1(O)CC[C@@H](Nc2cc(Nc3ccnc(-c4cnn(S(=O)(=O)C5CC5)c4)n3)ncc2C(=O)NCCF)CC1
B = O=C(c1cnc(Nc2ccnc(-c3cnn(S(=O)(=O)C4CC4)c3)n2)cc1NC1CCN(C2COC2)CC1)C1CC1
C = CC(C)Nc1cc(Nc2ccnc(-c3cnn(S(=O)(=O)C4CC4)c3)n2)ncc1C(=O)NCCF
Rank the items in ascending order with respect to IC50. Submit the labels in the order that the ranking request calls for.
A, B, C

I = O=C(c1cnc(Nc2ccnc(-c3cnn(S(=O)(=O)C4CC4)c3)n2)cc1N[C@H]1CC[C@@H](O)C1)C1CC1
II = CC(C)Nc1cc(Nc2ccnc(-c3cnn(S(=O)(=O)C4CC4)c3)n2)ncc1C1=CCCCO1
Which of the two gives a bigger number for IC50: I or II ? Respond with the label that goes with your answer.
II
(II: 523 nM, I: 29.4 nM)

====

target: EGFR del19/T790M/C797S (Homo sapiens, UniProt P00533, C797S/DEL746-750/T790M); assay: Biochemical EGFR kinase assay (Lance Ultra TR-FRET), del19/T790M/C797S; settings: Km ATP; read-out: IC50 del19/T790M/C797S (nM) Km ATP
attributeMeasured: IC50 (nM)

1 = CN(C)C[C@H]1CC[C@H](COc2cc(Nc3ccnc(-c4cnn(S(=O)(=O)C5CC5)c4)n3)ncc2C(=O)C2CC2)CC1
2 = O=C(c1cnc(Nc2ccnc(-c3cnn(S(=O)(=O)C4CC4)c3)n2)cc1NCC1CCCCO1)C1CC1 (centres unmarked)
Problem: Given the entries 1 and 2 , determine which has the lower reported IC50. Respond with the label that goes with your answer.
1

a = C[C@H](CCO)Nc1cc(Nc2ccnc(-c3cnn(S(=O)(=O)C4CC4)c3)n2)ncc1C(=O)C1CC1
b = NC[C@H]1CC[C@H](CNc2cc(Nc3ccnc(-c4cnn(S(=O)(=O)C5CC5)c4)n3)ncc2C(=O)C2CC2)CC1
Problem: Given the entries a and b , determine which has the lower reported IC50. Respond with the label that goes with your answer.
b

A = C[C@]1(O)CC[C@@H](Nc2cc(Nc3ccnc(-c4cnn(S(=O)(=O)C5CC5)c4)n3)ncc2C(=O)CC2CCOCC2)CC1
B = O=C(c1cnc(Nc2ccnc(-c3cnn(S(=O)(=O)C4CC4)c3)n2)cc1NC[C@H]1CC[C@H](Cn2cccn2)CC1)C1CC1
C = O=C(c1cnc(Nc2ccnc(-c3cnn(S(=O)(=O)C4CC4)c3)n2)cc1NCCCC(F)F)C1CC1
D = C[C@]1(O)CC[C@@H](Nc2cc(Nc3ccnc(-c4cnn(S(=O)(=O)C5CC5)c4)n3)ncc2C(=O)C(F)F)CC1
Rank the items in ascending order with respect to IC50. Submit the labels in the order that the ranking request calls for.
A, D, C, B
(A: 0.4 nM, D: 0.8 nM, C: 1.8 nM, B: 9 nM)

A = CNC[C@H]1CC[C@H](CNc2cc(Nc3ccnc(-c4cnn(S(=O)(=O)C5CC5)c4)n3)ncc2C(=O)C2CC2)CC1
B = CN(C)C[C@H]1CC[C@H](CNc2cc(Nc3ccnc(-c4cnn(S(=O)(=O)C5CC5)c4)n3)ncc2C(=O)C2CC2)CC1
C = CC(O)C(C)(C)Nc1cc(Nc2ccnc(-c3cnn(S(=O)(=O)C4CC4)c3)n2)ncc1C(=O)C1CC1 (centres unmarked)
Rank the items in ascending order with respect to IC50. Submit the labels in the order that the ranking request calls for.
B, A, C
(B: 0.1 nM, A: 0.2 nM, C: 0.4 nM)
